Tested on: SARS-CoV-2 B.1.1.7 lineage
measurementDescription: microbe, parasite or virus in culture
Type: cell-based
runConditions: Severe acute respiratory syndrome coronavirus 2; Table C; SARS-CoV-2 B.1.1.7 in A549-dual_ACE2_TMPRSS2 cells, class symbols; read-out: A549-dual_ACE2_TMPRSS2 (EC50)
pEC50: −log10 of the molar value.
Some compounds, each annotated with its measured pEC50.
property: pEC50

CC(C)C[C@@H](C(=O)N1C[C@]2(C[C@H]1C#N)C(=O)Nc1ccccc1N2C)N(C)C(=O)[C@H](C)NC(=O)C(F)(F)F [Example 42]; 6.00 to 7.00
CN(C(=O)[C@@H](CC1CC1)n1cc(C2CC2)nn1)[C@@H](CC1CC1)C(=O)N1C[C@@]2(C[C@H]1C#N)Oc1cc(F)cc(F)c1NC2=O [Compound 107]; 6.00 to 7.00
C[C@H](NC(=O)OC1CC1)C(=O)N(C)[C@@H](CC1CC1)C(=O)N1C[C@@]2(C[C@H]1C#N)Oc1cccnc1NC2=O [Compound 219]; 6.00 to 7.00

From: patent US20240199647A1
